Where do these numbers come from? They come from PubChem BioAssay (NCI).

# System: SF-539 CNS
# Protocol Description: NCI tumour cell line growth inhibition, 48 h
Measured Parameter: TGI

Worked examples follow.
Tested on SF-539 CNS, the item NC1=NN(c2ccccc2)C(=O)C1C(=O)C(=O)Nc1ccc(Cl)cc1 (configuration not stated) showed TGI equal to > 100 µM

Tested on SF-539 CNS, the item `Cc1cccc2c(C3=C(c4cn(C)c5ccccc45)C(=O)NC3=O)cn(C)c12` showed TGI equal to > 25 µM

Tested on SF-539 CNS, the item `CCOC(=O)Oc1cc2ccsc2c2c1c1ccccc1n2C(=O)OCC` showed TGI equal to > 100 µM

Tested on SF-539 CNS, the item `Cc1ccc(S(=O)(=O)NC(=O)C2S(=O)(=O)OCCOS2(=O)=O)cc1` showed TGI equal to > 100 µM

Tested on SF-539 CNS, the item CC1CC(C[N+](=O)[O-])CC2(C1)OCCO2 (configuration not stated) showed TGI equal to > 100 µM

Continuing:
Tested on SF-539 CNS, the item NC(Cc1ccc(O)cn1)C(=O)NC(C(=O)O)c1ccccc1 (configuration not stated) showed TGI equal to > 100 µM

Tested on SF-539 CNS, the item `COc1c(C)c(C/C=C(\C)CC/C=C(\C)CC/C=C(\C)CCC=C(C)C)c(OC)c(OC)c1OC` showed TGI equal to > 100 µM

Tested on SF-539 CNS, the item `C[C@@H]1C[C@H]2OC(=O)[C@@]3(C)CCC[C@@](C)([C@@H]23)[C@@]1(O)CCc1ccoc1` showed TGI equal to > 100 µM

Tested on SF-539 CNS, the item CN1C(=O)N(C)C2(CCN(CC(CC3OCCO3)c3ccc(F)cc3)CC2)C1=O (configuration not stated) showed TGI equal to > 100 µM

Tested on SF-539 CNS, the item COC(=O)C(=O)C(CC(=O)Nc1cc(Cl)ccc1Cl)C(=O)OC (configuration not stated) showed TGI equal to > 100 µM

Tested on SF-539 CNS, the item `Clc1ccc(Nc2ncco2)cc1Cl` showed TGI equal to > 10 µM

Tested on SF-539 CNS, the item `CC(=O)Nc1ccccc1-c1nc2ccccc2nc1-c1ccccc1` showed TGI equal to > 100 µM
